method_description: Pharmacokinetics of four components of ESZWD in CHF-HKYd rat serum by UPLC-MS/MS
Assay type: in vivo
experimental_conditions: Sprague-Dawley (SD); CHF-HKYd rat serum after oral administration of ESZWD, mean ± SD, n = 6
measured_parameter: half-life (min)
One number for each entry, in min.

The compound listed as C[C@@]12C[C@@]3(O)O[C@@H](O1)[C@]1(COC(=O)c4ccccc4)[C@H]3C[C@@]12O[C@@H]1O[C@H](CO)[C@@H](O)[C@H](O)[C@H]1O has a reported half-life of 193

====

method_description: Pharmacokinetics of four components of ESZWD in CHF-HKYd rat serum by UPLC-MS/MS
Assay type: in vivo
experimental_conditions: Sprague-Dawley (SD), in vivo; CHF-HKYd rat serum after oral administration of ESZWD, mean ± SD, n = 6; read-out: Tmax
measured_parameter: Tmax (min)
Numbers only, in min.

The molecule listed as CCN1C[C@]2(COC)[C@H](O)C[C@H](OC)[C@@]34[C@@H]5C[C@@]6(O)[C@H](OC(=O)c7ccccc7)[C@@H]5[C@@](OC(C)=O)([C@@H]([C@H](OC)[C@H]23)[C@@H]14)[C@@H](O)[C@@H]6OC [Aconitine] has a reported Tmax of 45

====

method_description: Pharmacokinetics of four components of ESZWD in CHF-HKYd rat serum by UPLC-MS/MS
Assay type: in vivo
experimental_conditions: Sprague-Dawley (SD), in vivo; CHF-HKYd rat serum after oral administration of ESZWD, mean ± SD, n = 6; read-out: CL/F (converted)
measured_parameter: CL/F (L/h/kg)
One number for each entry, in L/h/kg.

The compound listed as CCN1C[C@]2(COC)[C@H](O)C[C@H](OC)[C@@]34[C@@H]5C[C@@]6(O)[C@H](OC(=O)c7ccccc7)[C@@H]5[C@@](OC(C)=O)([C@@H]([C@H](OC)[C@H]23)[C@@H]14)[C@@H](O)[C@@H]6OC has a reported CL/F of 425

====

method_description: Pharmacokinetics of four components of ESZWD in CHF-HKYd rat serum by UPLC-MS/MS
Format: in vivo
experimental_conditions: Sprague-Dawley, in vivo; CHF-HKYd rat serum after oral administration of ESZWD, mean ± SD, n = 6
measured_parameter: half-life

The compound listed as CCN1C[C@]2(COC)[C@H](O)C[C@H](OC)[C@@]34[C@@H]5C[C@@]6(O)[C@H](OC(=O)c7ccccc7)[C@@H]5[C@@](OC(C)=O)([C@@H]([C@H](OC)[C@H]23)[C@@H]14)[C@@H](O)[C@@H]6OC has a reported half-life of ~4 h

====

method_description: Pharmacokinetics of four components of ESZWD in CHF-HKYd rat serum by UPLC-MS/MS
Format: in vivo
experimental_conditions: Sprague-Dawley (SD); CHF-HKYd rat serum after oral administration of ESZWD, mean ± SD, n = 6; read-out: Cmax
measured_parameter: Cmax (ng/mL)
Numbers only, in ng/mL.

The molecule listed as C[C@@]12C[C@@]3(O)O[C@@H](O1)[C@]1(COC(=O)c4ccccc4)[C@H]3C[C@@]12O[C@@H]1O[C@H](CO)[C@@H](O)[C@H](O)[C@H]1O has a reported Cmax of 198

====

method_description: Pharmacokinetics of four components of ESZWD in CHF-HKYd rat serum by UPLC-MS/MS
Format: in vivo
experimental_conditions: Sprague-Dawley (SD), in vivo; CHF-HKYd rat serum after oral administration of ESZWD, mean ± SD, n = 6; read-out: Cmax
measured_parameter: Cmax (ng/mL)
Numbers only, in ng/mL.

The compound listed as CCN1C[C@]2(COC)[C@H](O)C[C@H](OC)[C@@]34[C@@H]5C[C@@]6(O)[C@H](OC(=O)c7ccccc7)[C@@H]5[C@@](OC(C)=O)([C@@H]([C@H](OC)[C@H]23)[C@@H]14)[C@@H](O)[C@@H]6OC [Aconitine] has a reported Cmax of 8.96

====

method_description: Pharmacokinetics of four components of ESZWD in CHF-HKYd rat serum by UPLC-MS/MS
Format: in vivo
experimental_conditions: Sprague-Dawley (SD); CHF-HKYd rat serum after oral administration of ESZWD, mean ± SD, n = 6; read-out: CL/F (converted)
measured_parameter: CL/F (mL/min/kg)
Give bare numbers, in mL/min/kg.

The molecule listed as C[C@@]12C[C@@]3(O)O[C@@H](O1)[C@]1(COC(=O)c4ccccc4)[C@H]3C[C@@]12O[C@@H]1O[C@H](CO)[C@@H](O)[C@H](O)[C@H]1O [Paeoniflorin] has a reported CL/F of 148

====

method_description: Pharmacokinetics of four components of ESZWD in CHF-HKYd rat serum by UPLC-MS/MS
Type: in vivo
Set-up: concentration or dose not given beside the values
experimental_conditions: Sprague-Dawley (SD); CHF-HKYd rat serum after oral administration of ESZWD, mean ± SD, n = 6
measured_parameter: AUC(0-inf)
In your response, put the unit directly after the numeric value.

The compound listed as C[C@@]12C[C@@]3(O)O[C@@H](O1)[C@]1(COC(=O)c4ccccc4)[C@H]3C[C@@]12O[C@@H]1O[C@H](CO)[C@@H](O)[C@H](O)[C@H]1O has a reported AUC(0-inf) of 2260 ng·h/mL

====

method_description: Pharmacokinetics of four components of ESZWD in CHF-HKYd rat serum by UPLC-MS/MS
Assay type: in vivo
Set-up: concentration or dose not given beside the values
experimental_conditions: Sprague-Dawley (SD); CHF-HKYd rat serum after oral administration of ESZWD, mean ± SD, n = 6
measured_parameter: AUC(0-t)

The molecule listed as C[C@@]12C[C@@]3(O)O[C@@H](O1)[C@]1(COC(=O)c4ccccc4)[C@H]3C[C@@]12O[C@@H]1O[C@H](CO)[C@@H](O)[C@H](O)[C@H]1O has a reported AUC(0-t) of 2240 ng·h/mL

====

method_description: Pharmacokinetics of four components of ESZWD in CHF-HKYd rat serum by UPLC-MS/MS
Type: in vivo
experimental_conditions: Sprague-Dawley; CHF-HKYd rat serum after oral administration of ESZWD, mean ± SD, n = 6
measured_parameter: half-life

The molecule listed as C[C@@]12C[C@@]3(O)O[C@@H](O1)[C@]1(COC(=O)c4ccccc4)[C@H]3C[C@@]12O[C@@H]1O[C@H](CO)[C@@H](O)[C@H](O)[C@H]1O has a reported half-life of ~3 h

====

method_description: Pharmacokinetics of four components of ESZWD in CHF-HKYd rat serum by UPLC-MS/MS
Type: in vivo
experimental_conditions: Sprague-Dawley (SD), in vivo; CHF-HKYd rat serum after oral administration of ESZWD, mean ± SD, n = 6
measured_parameter: AUC(0-inf) (ng·h/mL)
One number for each entry, in ng·h/mL.

The compound listed as CCN1C[C@]2(COC)[C@H](O)C[C@H](OC)[C@@]34[C@@H]5C[C@@]6(O)[C@H](OC(=O)c7ccccc7)[C@@H]5[C@@](OC(C)=O)([C@@H]([C@H](OC)[C@H]23)[C@@H]14)[C@@H](O)[C@@H]6OC has a reported AUC(0-inf) of 50.1

====

method_description: Pharmacokinetics of four components of ESZWD in CHF-HKYd rat serum by UPLC-MS/MS
Format: in vivo
experimental_conditions: Sprague-Dawley (SD); CHF-HKYd rat serum after oral administration of ESZWD, mean ± SD, n = 6; read-out: Tmax
measured_parameter: Tmax (h)
Give bare numbers, in h.

The compound listed as C[C@@]12C[C@@]3(O)O[C@@H](O1)[C@]1(COC(=O)c4ccccc4)[C@H]3C[C@@]12O[C@@H]1O[C@H](CO)[C@@H](O)[C@H](O)[C@H]1O has a reported Tmax of 6

====

method_description: Pharmacokinetics of four components of ESZWD in CHF-HKYd rat serum by UPLC-MS/MS
Format: in vivo
experimental_conditions: Sprague-Dawley (SD), in vivo; CHF-HKYd rat serum after oral administration of ESZWD, mean ± SD, n = 6
measured_parameter: AUC(0-t) (ng·h/mL)
Answers are plain numbers, in ng·h/mL.

The molecule listed as CCN1C[C@]2(COC)[C@H](O)C[C@H](OC)[C@@]34[C@@H]5C[C@@]6(O)[C@H](OC(=O)c7ccccc7)[C@@H]5[C@@](OC(C)=O)([C@@H]([C@H](OC)[C@H]23)[C@@H]14)[C@@H](O)[C@@H]6OC has a reported AUC(0-t) of 48.9

====

method_description: Pharmacokinetics of four components of ESZWD in CHF-HKYd rat serum by UPLC-MS/MS
Type: in vivo
experimental_conditions: Sprague-Dawley (SD), in vivo; CHF-HKYd rat serum after oral administration of ESZWD, mean ± SD, n = 6
measured_parameter: half-life (h)
Give bare numbers, in h.

The compound listed as CCN1C[C@]2(COC)[C@H](O)C[C@H](OC)[C@@]34[C@@H]5C[C@@]6(O)[C@H](OC(=O)c7ccccc7)[C@@H]5[C@@](OC(C)=O)([C@@H]([C@H](OC)[C@H]23)[C@@H]14)[C@@H](O)[C@@H]6OC has a reported half-life of 4.24
